B1: T. brucei RNA Editing Ligase 1 (TbREL1), full length wild type [modified: [35S]-methionine labelled; [35S]-methionine labelled] [Trypanosoma brucei] / KREPA2 [modified: [35S]-methionine labelled; [35S]-methionine labelled] [Trypanosoma … (parent complex)
chain 1: YMPLPNDQSDFSPYIEIDLPSESRIQSLHKSGLAAQEWVACEKVHGTNFGIYLINQGDHEVVRFAKRSGIMDPNENFFGYHILIDEFTAQIRILNDLLKQKYGLSRVGRLVLNGELFGAKYKHPLVPKSEKWCTLPNGKKFPIAGVQIQREPFPQYSPELHFFAFDIKYSVSGAEEDFVLLGYDEFVEFSSKVPNLLYARALVRGTLDECLAFDVENFMTPLPALLGLGNYPLEGNLAEGVVIRHVRRGDPAVEKHNVSTIIKLRCSSFMELKHPGKQKELKETFIDTVRSGALRRVRGNVTVISDSMLPQVEAAANDLLLNNVSDGRLSNVLSKIGREPLLSGEVSQVDVVLMLAKDALKDFLKEVDSLVLNTTLAFRKLLITNVYFESKRLVEQKWKELMQEEAAAQSEAIPPLSPAAPTKGE
chain 2: MYRRFFRSAAVKHLGTTSAQCLMRATKYPCGAMCRNASSCHPQTLGYQQRFQSTTDKKFHCSVCKKPFRLEMAAKLHLQQAHGGDGSVEAGPGPGVEASSVNVVSTPVPSPISPVERTFVDEEERRPRRMRPTPKPLHQPDRDIPAAAMEEMLGVWDKIGLNRLEGNFVHSTMVMKVFAAPPDVSEIPLYEHVAPEGENPFDSLDHMTTGTVDATYVGHDAFAEVDLVDPFVAAPDQTLNPFRAGKVRNPFTRISPTQREVVKPLQPPQPKEEPLKAPVTPFGQLPMFGQTREPSASFAAAAVSVQAAANPNEVSSPFAAAVSSSPFVGQVASPFAPAQDVAGSPFEASPCAASSPFVTAGGQETSPFAAPSTPASFGQGSLFPPMGTGAPGFTAITETEQRQQELEHGCPTCGKKFSTFEGAAMHSKSKHGIVLESKKVKDRLNRKGVPDLPAYVPSPVDLSSTSPFGTRSAIGASWAETELIPHAQCVSNITIVGRVLDVSQASENVSHVTVFVEGERSGEEETLTLCCFGEVSQKIRGTLKRNATIFASGTLRLHPVYEASNNKYYVSPVVHVSMPTGTLAVIT

Variants of: B1
MEASUREMENT PROTOCOL: co-precipitation (pull-down) with His-tag isolation beads, [35S]-methionine labeled proteins; parent: 100; read off a plot
For each of the variants below, state its percent of parent.

Enquiry: What value of measured percent of parent is listed for chain 1 W398A ?
Return: ~66 % of WT

Enquiry: What value of measured percent of parent is listed for chain 1 S259A ?
Return: ~100 % of WT

Enquiry: What value of measured percent of parent is listed for chain 1 K391A ?
Return: ~88 % of WT

Enquiry: What value of measured percent of parent is listed for chain 1 E37A ?
Return: ~67 % of WT

Enquiry: What value of measured percent of parent is listed for chain 1 K399A ?
Return: ~60 % of WT

Enquiry: What value of measured percent of parent is listed for chain 1 K122A ?
Return: ~100 % of WT

Enquiry: What value of measured percent of parent is listed for chain 1 E75A ?
Return: ~74 % of WT

Enquiry: What value of measured percent of parent is listed for chain 1 Q56A ?
Return: ~110 % of WT

Enquiry: What value of measured percent of parent is listed for chain 1 K361A ?
Return: ~67 % of WT

Enquiry: What value of measured percent of parent is listed for chain 1 E366A ?
Return: ~72 % of WT

Enquiry: What value of measured percent of parent is listed for chain 1 K380A ?
Return: ~84 % of WT

Enquiry: What value of measured percent of parent is listed for chain 1 K335A ?
Return: ~57 % of WT

Enquiry: What value of measured percent of parent is listed for chain 1 Y231A ?
Return: ~75 % of WT

Enquiry: What value of measured percent of parent is listed for chain 1 S170A ?
Return: ~66 % of WT

Enquiry: What value of measured percent of parent is listed for chain 1 H161A ?
Return: ~94 % of WT

Enquiry: What value of measured percent of parent is listed for chain 1 E411A ?
Return: ~94 % of WT

Enquiry: What value of measured percent of parent is listed for chain 1 T220A ?
Return: ~84 % of WT
